Cited source for all entries: ChEMBL document CHEMBL1137282

target: 11-beta-hydroxysteroid dehydrogenase type 2 (Mus musculus, UniProt P51661)
Sequence (P51661 whole entry): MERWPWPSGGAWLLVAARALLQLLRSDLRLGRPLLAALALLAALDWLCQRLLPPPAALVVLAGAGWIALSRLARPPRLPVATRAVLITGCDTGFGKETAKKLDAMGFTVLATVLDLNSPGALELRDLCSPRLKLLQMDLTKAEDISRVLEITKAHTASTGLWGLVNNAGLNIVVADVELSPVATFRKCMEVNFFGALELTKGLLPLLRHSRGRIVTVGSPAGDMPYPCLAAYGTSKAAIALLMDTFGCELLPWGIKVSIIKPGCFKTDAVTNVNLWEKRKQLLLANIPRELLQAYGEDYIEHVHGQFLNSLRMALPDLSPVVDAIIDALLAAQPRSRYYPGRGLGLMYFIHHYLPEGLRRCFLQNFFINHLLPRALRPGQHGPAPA
# maps each entry to its IC50
readoutLabel: IC50 (µM)

• CC(C)(C(=O)N[C@H]1C2CCCC1C[C@@H](C(=O)O)C2)N1CCN(c2ccc(C(F)(F)F)cn2)CC1 = 15
• CC(C)(Oc1ccc(Cl)cc1)C(=O)N[C@H]1C2CCCC1C[C@H](C(=O)O)C2 = 1.82
• CC(C)(Oc1ccc(Cl)cc1)C(=O)N[C@H]1C2CCCC1C[C@@H](C(N)=O)C2 = 100

----------
experiment: Stability in mouse liver microsomes after 30 min; type: ADME, Microsome; details: liver microsomes, read-out: Stability
# maps each entry to its remaining at 0.5 h
readoutLabel: remaining at 0.5 h (%)

* CC(C)(C(=O)NC1CCCC(C#N)CCC1)N1CCN(c2ccc(C(F)(F)F)cn2)CC1 (stereo unspecified) | 8
* CC(C)(Oc1ccc(Cl)cc1)C(=O)NC12CCC(C(N)=O)(CC1)CC2 | 85
* CC(C)(Oc1ccc(Cl)cc1)C(=O)N[C@H]1C2CCCC1C[C@@H](C(N)=O)C2 | 21
* CC(C)(C(=O)N[C@H]1C2CCC1C[C@@H](C(=O)O)C2)N1CCN(c2ccc(C(F)(F)F)cn2)CC1 | 97
* CC(C)(C(=O)N[C@H]1C2CCCC1C[C@H](C(N)=O)C2)N1CCN(c2ccc(C(F)(F)F)cn2)CC1 | 75
* CC(C)(Oc1ccc(Cl)cc1)C(=O)N[C@H]1C2COCC1C[C@@H](C(N)=O)C2 | 88
* CC(C)(Oc1ccc(Cl)cc1)C(=O)NC1C2CC3CC1CC(O)(C2)O3 (stereo unspecified) | 98
* CC(C)(Oc1ccc(C#N)cn1)C(=O)N[C@H]1C2CCCC1C[C@H](C(N)=O)C2 | 89
* CC(C)(Oc1ccc(Cl)cc1)C(=O)N[C@H]1C2CCCC1C[C@H](C(=O)O)C2 | 90
* CC(C)(Oc1ccc(Cl)cc1)C(=O)NC1CCCC(C#N)CCC1 (stereo unspecified) | 0.1
* CC(C)(C(=O)N[C@H]1C2CCCC1C[C@@H](C(=O)O)C2)N1CCN(c2ccc(C(F)(F)F)cn2)CC1 | 91
